system: GTase; experiment: GTase-inhibitory activity (formation of insoluble glucan from sucrose, turbidity at 550 nm); assay type: biochemical, Streptococcus mutans ATCC 33402; settings: Table 4; 0.5% test substance; 550 nm; 37° C., 16 hours; buffer pH 6.5; control 0.55
# key: entry, value: Optical density of reaction system
Quick one: just the number, no unit, thanks!

Before answering, review these 5 worked examples.
# Optical density of reaction system of Cc1cc(OP(=O)(O)OC2=C(O)C(C(O)CO)OC2=O)cc2c1OC(C)(CCCC(C)CCCC(C)CCCC(C)C)CC2 (stereo not drawn) = 0.03

# Optical density of reaction system of Cc1c(OP(=O)(O)OC2=C(O)C(C(O)CO)OC2=O)cc2c(c1C)OC(C)(CCCC(C)CCCC(C)CCCC(C)C)CC2 (stereo not drawn) = 0.03

Documented Optical density of reaction system of CC(C)CCCC(C)CCCC(C)CCCC1(C)CCc2cc(OP(=O)(O)OC3=C(O)C(C(O)CO)OC3=O)ccc2O1 (stereo not drawn) : 0.03

Entry Cc1c(C)c2c(c(C)c1OP(=O)(O)OC1=C(O)C(C(O)CO)OC1=O)CCC(C)(CCCC(C)CCCC(C)CCCC(C)C)O2 (stereo not drawn) [Substance 1] ; Optical density of reaction system = 0.04

Optical density of reaction system for Cc1cc(OP(=O)(O)OC2=C(O)C(C(O)CO)OC2=O)c(C)c2c1OC(C)(CCCC(C)CCCC(C)CCCC(C)C)CC2 (stereo not drawn) is 0.03

Consider the additional compound presented here.
The value of Optical density of reaction system measured for the compound Cc1c(C)c2c(c(C)c1OP(=O)(O)OC1=C(O)C(C(O)CO)OC1=O)CCC(C)(CCCC(C)CCCC(C)CCCC(C)C)O2 (stereo not drawn) [Substance 6] turned out to be 0.02
